protocol_description: chemical genetic growth profiling, strain panel (AID 1159580);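 also: tested at 20 µM; growth read once vehicle control cultures reached saturation at 30 °C; 1 = growth at the plate median or of vehicle wells; lower values mean less growth of the strain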
condition_details: S. cerevisiae deletion strains, growth OD, locus YFR010W, strain ubp6, active compounds read low
In all, about 5,500 compounds went through this assay and about 2,000 (36%) were called active. Another 18% or so got no clear call; they are omitted. The list shows a part of the results.
For each of the compounds below, state its normalized growth.
One number for each entry.

Take a look at these entries with their results.
compound	normalized growth
O=C(O)CCCc1ccc(N(CCCl)CCCl)cc1	1
COc1ccc2c(c1)OC/C(=C\c1ccc(OC)c(O)c1)C2=O	0.944
O=C(/C=C/c1ccc(O)c(O)c1)OCCc1ccccc1	0.906

Your task in this section: give normalized growth for each listed record.
1. CC1(C)S[C@@H]2[C@H](NC(=O)[C@H](N)c3ccccc3)C(=O)N2[C@H]1C(=O)O
2. CN1C2CCC1CC(OC(c1ccccc1)c1ccccc1N)C2 (stereo not given)
3. COc1ccc(-c2coc3cc(O)ccc3c2=O)c(OC)c1
4. N[C@@H](Cc1ccc(N(CCCl)CCCl)cc1)C(=O)O
5. COc1ccc2c(c1)OC/C(=C/c1ccc(OC)c(OC)c1)C2=O
6. C[C@@H]1CC(Cl)CC[C@H]1C(=O)OC(C)(C)C (stereo not given in full)
7. O=C(/C=C/c1ccc(O)c(O)c1)OC(Cc1ccc(O)c(O)c1)C(=O)O (stereo not given)

1: 0.996; 2: 0.996; 3: 0.984; 4: 0.985; 5: 0.986; 6: 0.98; 7: 0.997

Your task in this section: give normalized growth for each listed record.
1. CNC(=O)O/N=C(\C)SC
2. COc1ccc(-c2coc3cc(O)ccc3c2=O)c(O)c1O
3. O=C(O)/C=C/c1ccc(O)c(O)c1
4. COC(=O)c1cc(=O)c(O)c2c(O)c(O)ccc2c1

1. 0.997
2. 0.873
3. 1
4. 0.958

COc1ccc(-c2coc3cc(O)ccc3c2=O)cc1 yielded normalized growth of 0.984

====

protocol_description: chemical genetic growth profiling, strain panel (AID 1159580);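 also: tested at 20 µM; growth read once vehicle control cultures reached saturation at 30 °C; 1 = growth at the plate median or of vehicle wells; lower values mean less growth of the strain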
condition_details: S. cerevisiae deletion strains, growth OD, locus YJR043C, strain POL32, active compounds read low
In all, about 5,500 compounds went through this assay and about 2,000 (36%) were called active. Inconclusive results (about 18%) are left out. Some of the results follow.
observation_type: normalized growth
Numbers only.

molecule	reported
CSc1c(-c2ccccc2)c(N)nn1S(=O)(=O)c1ccccc1	1.01
COC(=O)CCCCCCCC(=O)Nc1ccc(Cl)cc1	1.01
Oc1cc(O)c2c(c1)O[C@H](c1ccc(O)c(O)c1)[C@@H](O)C2	1.01
CC1CCc2cc(F)cc3c(=O)c(C(=O)O)cn1c23 (stereo not drawn)	0.979
O=C(CSc1ccc(Cl)cc1)Nc1ccc(F)cc1	0.916
Oc1cc(O)c2c(c1)OC(c1cc(O)c(O)c(O)c1)C(O)C2c1c(O)cc(O)c2c1OC(c1cc(O)c(O)c(O)c1)C(O)C2c1c(O)cc(O)c2c1OC(c1cc(O)c(O)c(O)c1)C(O)C2 (stereo not drawn)	0.857

Your task in this section: give normalized growth for each listed record.
1. COc1ccc(CN(CCN(C)C)c2ccccn2)cc1
2. CSc1nc(N)n(-c2ccccc2)n1
3. c1ccc2c(c1)sc1ccccc12
4. O=S(=O)(O)CCS
5. C[C@]12CCC(=O)C=C1C=CC1C2CC[C@@]2(C)C1CC[C@@]21CCC(=O)O1 (stereo partly drawn)
6. CC[C@@H](C(=O)C(C)[C@@H](O)[C@H](C)CCc1ccc(C)c(O)c1C(=O)O)C1OC(CC)(C2CC[C@](O)(CC)[C@H](C)O2)C[C@@H]1C (stereo partly drawn)
7. CC(=O)S[C@@H]1CC2=CC(=O)CC[C@]2(C)[C@H]2CC[C@@]3(C)[C@@H](CC[C@@]34CCC(=O)O4)C12 (stereo partly drawn)
8. CCOC(=O)Cc1csc(N=CNO)n1

1. 1.01
2. 0.989
3. 0.99
4. 1.01
5. 1.06
6. 1.02
7. 1.01
8. 0.989
